Below, each of the molecules is paired with its reported inhibition value.
Target: UniProtKB P14902
Sequence (P14902 whole entry, looked up, the tested form may be a part): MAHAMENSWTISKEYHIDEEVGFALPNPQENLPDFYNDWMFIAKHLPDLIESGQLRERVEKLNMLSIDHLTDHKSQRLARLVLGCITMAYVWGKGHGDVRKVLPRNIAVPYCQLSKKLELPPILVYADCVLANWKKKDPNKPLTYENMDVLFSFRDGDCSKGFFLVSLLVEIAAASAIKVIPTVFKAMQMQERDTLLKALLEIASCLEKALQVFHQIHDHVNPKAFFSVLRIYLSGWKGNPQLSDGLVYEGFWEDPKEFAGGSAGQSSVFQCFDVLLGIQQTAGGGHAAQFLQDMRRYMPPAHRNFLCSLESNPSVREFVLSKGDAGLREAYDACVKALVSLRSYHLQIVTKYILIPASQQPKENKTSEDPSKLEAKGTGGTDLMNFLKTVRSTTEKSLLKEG
Assay: Inhibition of N-terminal hexa-histidine tagged human IDO1 (12 to 403 residues) expressed in Escherichia coli Transetta (DE3) using L-tryptophan as substrate at 100 uM preincubated with enzyme for 10 mins followed by substrate addition and measured after 30 to 60 mins by microplate reader analysis relative to control
Conditions: time 40-70 min
# output: bare number, implied unit %

Solved cases (10 shown):
INSERT INTO results (molecule, measurement_type, result_unit, observed_measurement) VALUES
  ('O=C1NC(=O)c2c(NCc3ccccc3[N+](=O)[O-])cccc21', 'inhibition', '%', 4),
  ('OC1CCCC(Nc2cccc(CNc3cc(C(F)(F)F)cc4[nH]ncc34)c2)C1 (stereo not drawn)', 'inhibition', '%', 2),
  ('FC(F)(F)c1cc(NC[C@@H]2CCCCN2)c2cn[nH]c2c1', 'inhibition', '%', 81),
  ('CNC(=O)c1cccc(CNc2cc(C(F)(F)F)cc3[nH]ncc23)c1', 'inhibition', '%', 46),
  ('FC(F)(F)c1cc(NCc2cccc(Br)c2)c2cn[nH]c2c1', 'inhibition', '%', 51),
  ('O=[N+]([O-])c1ccc(O)cc1CNc1cc(Br)cc2[nH]ncc12', 'inhibition', '%', 98),
  ('Oc1ccc(CNc2cc(C(F)(F)F)cc3[nH]ncc23)cc1', 'inhibition', '%', 81),
  ('Cc1ccc(CNc2cc(C(F)(F)F)cc3[nH]ncc23)c([N+](=O)O)c1', 'inhibition', '%', 62),
  ('O=[N+](O)c1c(Cl)cccc1CNc1cc(C(F)(F)F)cc2[nH]ncc12', 'inhibition', '%', 69),
  ('Oc1ccc(CNc2cc(C(F)(F)F)cc3[nH]ncc23)c(Cl)c1', 'inhibition', '%', 95);

Query :: For COc1cc(CNc2cc(Br)cc3[nH]ncc23)c([N+](=O)[O-])cc1OC , write its inhibition.
Result :: 79

Query :: Return inhibition (reported value) for this molecule: O=C(O)c1cccc(CNc2cc(C(F)(F)F)cc3[nH]ncc23)c1
Result :: 17

Query :: Please look at this molecule and report its inhibition: CC(C)n1ncc2c(NCc3ccccc3[N+](=O)[O-])cc(C(F)(F)F)cc21
Result :: 13

Query :: State, in one line, measured inhibition of O=C1NCc2c(NCc3ccccc3[N+](=O)[O-])cccc21
Result :: 9
